meta.source: ChEMBL document CHEMBL1126117

Measured IC50 of individual entries
Test system: GC3/Cl
Test: Concentration required to produce 50% reduction in clonogenic survival of GC3/Cl cell line.
Format: functional, cell-based
Settings: Homo sapiens

Smiles representation | IC50 / µM
OCCN1CCN(CCCCN2c3ccccc3Oc3ccccc32)CC1 | 7
OCCN(CCO)CCCN1c2ccccc2Oc2ccccc21 | 37
c1ccc2c(c1)Oc1ccccc1N2CCCCN1CCCC1 | 7
CCN(CC)CCCN1c2ccccc2Oc2ccccc21 | 10
O=C(CN1CCCCC1)N1c2ccccc2Oc2ccccc21 | 88
c1ccc2c(c1)Oc1ccccc1N2CCCCN1CCCCC1 | 7

* * *

Test system: KB
Experiment: Concentration required to produce 50% reduction in clonogenic survival of KB8-5 cell line.
Format: functional, cell-based
Conditions: Homo sapiens
Known IC50 of a selection of compounds
Recorded metric: IC50

Smiles representation | Recorded metric | Measured value
c1ccc2c(c1)Oc1ccccc1N2CCCCN1CCCCC1 | IC50 | < 7 µM
OCCN1CCN(CCCCN2c3ccccc3Oc3ccccc32)CC1 | IC50 | < 7 µM
OCCN(CCO)CCCCN1c2ccccc2Oc2ccccc21 | IC50 | < 10 µM
c1ccc2c(c1)Oc1ccccc1N2CCCCN1CCCC1 | IC50 | < 7 µM
